Attribution: patent US10905683B2

Experiment: Phase 1 Part 2, multiple ascending dose pharmacokinetics (7 days, q8h)
Assay type: in vivo, human
Conditions: human, plasma, oral, 200 mg, Day 1, 200 mg q 8 h, GM; read-out: AUC0-8

[
  {
    "chemical-string": "C=Cc1cc(C(=O)Nc2ccc(C(=N)N)cc2)c(-c2ccc(C(=O)NCC3CC3)nc2C(=O)O)cc1OC",
    "AUC(0-t) [ng·h/mL]": 236
  }
]

* * *

Test: Solubility with cyclodextrins and co-agents
Type: physicochemical
Conditions: α-cyclodextrin solution, aqueous with cosolvent or surfactant or cyclodextrin, thermodynamic from solid, α-cyclodextrin 150 mM, no co-solvent

[
  {
    "compound": "C=Cc1cc(C(=O)Nc2ccc(C(=N)N)cc2)c(-c2ccc(C(=O)NCC3CC3)nc2C(=O)O)cc1OC [Example 1]",
    "solubility / µg/mL": 10000
  }
]

* * *

Experiment: Phase 1 Part 2, multiple ascending dose pharmacokinetics (7 days, q8h)
Format: in vivo, human
Details: human, plasma, oral, 100 mg, Day 1, 100 mg q 8 h, Median

[
  {
    "chemical-string": "C=Cc1cc(C(=O)Nc2ccc(C(=N)N)cc2)c(-c2ccc(C(=O)NCC3CC3)nc2C(=O)O)cc1OC",
    "Tmax [h]": 1
  }
]

* * *

Assay: Phase 1 Part 2, multiple ascending dose pharmacokinetics (7 days, q8h)
Format: in vivo, human
Conditions: human, plasma, oral, 400 mg, Day 1, 400 mg q 8 h, Median
recorded-metric: Cmax (ng/mL)

[
  {
    "chemical-string": "C=Cc1cc(C(=O)Nc2ccc(C(=N)N)cc2)c(-c2ccc(C(=O)NCC3CC3)nc2C(=O)O)cc1OC",
    "numeric-result": 124
  }
]

* * *

Test: Phase 1 Part 2, multiple ascending dose pharmacokinetics (7 days, q8h)
Type: in vivo, human
Settings: human, plasma, oral, 400 mg, Day 7, 400 mg q 8 h, Median

[
  {
    "chemical-string": "C=Cc1cc(C(=O)Nc2ccc(C(=N)N)cc2)c(-c2ccc(C(=O)NCC3CC3)nc2C(=O)O)cc1OC",
    "measurement-unit": "h",
    "Tmax": 2
  }
]

* * *

Test: Phase 1 Part 1, single ascending oral dose pharmacokinetics and food effect
Type: in vivo, human
Settings: human, plasma, po, 500 mg, 500 mg single oral dose, FASTED; GM

[
  {
    "chemical-string": "C=Cc1cc(C(=O)Nc2ccc(C(=N)N)cc2)c(-c2ccc(C(=O)NCC3CC3)nc2C(=O)O)cc1OC",
    "measurement-unit": "ng/mL",
    "Cmax": 155
  }
]

* * *

Test: Phase 1 Part 1, single ascending oral dose pharmacokinetics and food effect
Type: in vivo, human
Conditions: human, plasma, po, 500 mg, 500 mg single oral dose, FED (high-fat breakfast); GM
Description: A two-part, Phase 1, double-blind, placebo-controlled study of the compound of Example 1 was conducted in healthy subjects. Part 1 of the study assessed the safety, tolerability and the pharmacokinetic (PK) and pharmacodynamic (PD) properties of the compound of Example 1 following a single ascending dose. […] Compound concentrations then declined biphasically and were quantifiable through 9 hours postdose in Cohort 1 (50 mg) and 24 hours postdose in Cohorts 4 and 5 (500 and 1000 mg).

[
  {
    "molecule": "C=Cc1cc(C(=O)Nc2ccc(C(=N)N)cc2)c(-c2ccc(C(=O)NCC3CC3)nc2C(=O)O)cc1OC [Example 1]",
    "measurement-unit": "µg·h/mL",
    "AUC(0-t)": 0.586
  }
]
